These entries and their values trace back to PubChem BioAssay AID1159580.

- assay.remarks: chemical genetic growth profiling, strain panel (AID 1159580);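 further: tested at 20 µM; growth read once vehicle control cultures reached saturation at 30 °C; 1 = growth at the plate median or of vehicle wells; lower values mean less growth of the strain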
- recorded.conditions: S. cerevisiae deletion strains, growth OD, locus YKL085W, strain MDH1 (second series), active compounds read low
The whole screen tested about 5,500 compounds, of which about 2,000 (36%) were called active. About 18% were inconclusive and are not listed. This is one part of the list.
outcome.measure: normalized growth
Just the number, please, no unit after it.

Solved cases (2 shown):
>>> value_observed("CCCNC1CCc2nc(N)sc2C1 (stereo not drawn)")
1.01
>>> value_observed("CC[N+](CC)(CC)CCOc1cccc(OCC[N+](CC)(CC)CC)c1OCC[N+](CC)(CC)CC")
1.02

For reference, reported normalized growth for CC(C)[C@@H]1CC[C@@H](C)C[C@H]1O stands at 1.01

Record COc1ccc(CCN2CCC(Nc3nc4ccccc4n3Cc3ccc(F)cc3)CC2)cc1 , field normalized growth: 1.04

Just so you know, measured normalized growth for CCCCNc1ccc(C(=O)OCCN(C)C)cc1 came out at 1.01

// recorded normalized growth for C=C1CCC2C(CC2(C)C)C(=C)CC/C1=N\O (stereo not drawn) : 0.972

# molecule Nc1ccc(N=Nc2ccccc2)c(N)n1 ; its normalized growth = 1.01

---

- assay.remarks: chemical genetic growth profiling, strain panel (AID 1159580);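 further: tested at 20 µM; growth read once vehicle control cultures reached saturation at 30 °C; 1 = growth at the plate median or of vehicle wells; lower values mean less growth of the strain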
- recorded.conditions: S. cerevisiae deletion strains, growth OD, locus YKR001C, strain vps1, active compounds read low
In all, about 5,500 compounds went through this assay and about 2,000 (36%) were called active. Inconclusive results (about 18%) are left out. The list shows a part of the results.
outcome.measure: normalized growth
Reply with the value as a number alone.

// sample CC(C)NNC(=O)c1ccncc1 , its normalized growth was 1.02

// sample C[N+]1(C)C2CC(OC(=O)[C@@H](CO)c3ccccc3)CC1C1OC12 (stereo not given in full) , its normalized growth was 1.02

Reported normalized growth ( NC[C@@H]1CC[C@@H](N)[C@@H](O[C@H]2[C@H](O)[C@@H](O[C@H]3O[C@H](CO)[C@@H](O)[C@H](N)[C@H]3O)[C@H](N)C[C@@H]2N)O1 ) = 0.994

The reported normalized growth of the compound COc1cc(-c2coc3cc(OCc4ccccc4)c(OC)c(O)c3c2=O)cc(O)c1OC was 0.88

Lab note: measured normalized growth of O=C(Cn1ccnc1[N+](=O)[O-])NCCO was 1.01

Recorded normalized growth (compound NC(CO)C(=O)NNCc1ccc(O)c(O)c1O (stereo not given) ): 0.986

// sample COc1cc(-c2coc3cc(OCc4ccccc4)c(OC)c(O)c3c2=O)cc(OCc2ccccc2)c1OC , its normalized growth was 0.964

The value of normalized growth measured for the compound C=C1C(=O)O[C@@H]2C[C@@]3(C)CCC[C@H](C)C3=C[C@H]12 turned out to be 0.496

Form: compound = O=C(O)c1ccccc1-c1c2cc(Br)c(=O)cc-2oc2[c]([Hg])c(O)c(Br)cc12 ; normalized growth = 0.101

# compound NC(N)=NS(=O)(=O)c1ccc(N)cc1 ; its normalized growth = 1.01

---

- assay.remarks: chemical genetic growth profiling, strain panel (AID 1159580);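 further: tested at 20 µM; growth read once vehicle control cultures reached saturation at 30 °C; 1 = growth at the plate median or of vehicle wells; lower values mean less growth of the strain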
- recorded.conditions: S. cerevisiae deletion strains, growth OD, locus YDL134C, strain PPH21
The campaign covered roughly 5,500 compounds. About 2,000 (36%) were called active. Inconclusive results (about 18%) are left out. Cut-off read from the data, not from the text of the source: active = normalized growth mostly below about 0.91 (no sharp cut-off); inconclusive = no clear call, values can overlap the other calls; inactive = mostly above about 0.92. This is one part of the list.
The categories you may choose from are 1.0 = active, 0.0 = inactive

// param item: O=C(O)c1ccccc1-c1c2cc(Br)c(=O)cc-2oc2[c]([Hg])c(O)c(Br)cc12 ; yields the recorded call
1.0

Each compound tested received a call. Report the one for Cc1ccc(-n2cccc2)c(NC(=S)Nc2ccc(Br)cc2OC(F)(F)F)c1 .
0.0

Recorded call for Cc1cccc(C)c1NC1=NCCCS1 ?
0.0

Test call, this compound: Cc1onc(-c2c(F)cccc2Cl)c1C(=O)Oc1ccccc1
0.0
